Entry source: patent US7449463B2

# Tested on: Respiratory Syncytial Virus
# assay-overview: microbe, parasite or virus in culture
# Assay type: cell-based
# particulars: human respiratory syncytial virus; pEC50 (−log of EC50 when expressed in molar units), protection against RSV cytopathology
measure: pEC50
Note on pEC50: it is the negative log10 of concentration, concentration in mol/L.

Known pEC50 results, listed for orientation:
{"columns": ["compound", "pEC50"],
 "data": [
  ["Cc1ccc(CCCO)c(NCc2ccc3nc(NCCCN4CCOCC4)n(Cc4cccc5c4ncn5C)c3c2)c1", 8.60],
  ["Cc1ccc(CCCO)c(NCc2ccc3nc(NCCCN4CCOCC4)n(Cc4nc(C)c(C)nc4C)c3c2)c1", 7.60],
  ["Cc1cc(C)cc(N(CCCC(N)=O)Cc2ccc3nc(NCCCN4CCOCC4)n(Cc4cccc5cccnc45)c3c2)c1", 8.50],
  ["Cc1cc(C)cc(N(CCCC(N)=O)Cc2ccc3nc(NCCCN4CCOCC4)n(C4CCCc5nc(C)c(C)nc54)c3c2)c1 (stereo not drawn)", 8.80],
  ["Cc1ccc(CCCO)c(NCc2ccc3nc(NCCCN4CCOCC4)n(Cc4cc(Br)ccc4O)c3c2)c1", 9.30]
]}

Ask: For the compound Cc1cc(C)cc(N(CCCC(N)=O)Cc2ccc3nc(NCCCN4CCOCC4)n(Cc4cccc(Br)n4)c3c2)c1 , report pEC50.
Reply: 7.50
